System: BDF1 mice, B16 melanoma s.c., survival/tumor T/C
Assay: NCI In Vivo Anticancer Drug Screen. Data for tumor model B16 Melanoma (subcutaneous) in B6D2F1 (BDF1) mice
Conditions: endpoint: median survival time; dose: 50.0 mg/kg/injection; schedule: Q01DX009 (ip); vehicle: saline with Tween-80; higher = longer survival
Results filed as inconclusive are left out.
PARAMETER_MEASURED: T/C

// worked examples, T/C included
> print(dat)
                                   molecule  parameter.measured  experimental.result
1                  Cc1[nH]nc(-c2ccon2)c1N=O                 T/C     100 % of control
2                     S=c1nc[nH]c2nc[nH]c12                 T/C     100 % of control
3  CCOC(=O)c1csc(-c2csc(CCNC(=O)c3ccccc3)n2)n1                 T/C      91 % of control

-- ask // output T/C; input CC(NSc1ccccc1[N+](=O)[O-])C(=O)O (stereo unspecified) ; system BDF1 mice, B16 melanoma s.c., survival/tumor T/C
-- reply 89 % of control

-- ask // output T/C; input O=P(OCC(Br)CBr)(OCC(Br)CBr)OCC(Br)CBr (stereo unspecified) ; system BDF1 mice, B16 melanoma s.c., survival/tumor T/C
-- reply 110 % of control

-- ask // output T/C; input "C[C@]12C=CC(=O)C=C1CC[C@@H]1[C@@H]2C(=O)C[C@@]2(C)[C@H]1CC[C@]2(O)C(=O)CO" ; system BDF1 mice, B16 melanoma s.c., survival/tumor T/C
-- reply 124 % of control
